Test system: KM12 colon
Assay: NCI-60 one-dose screen, 48 h (100 = growth as untreated, 0 = no growth, -100 = all killed)
Settings: 10 µM unless noted
Experimental: Growth inhibition of the KM12 human tumor cell line is measured as a screen for anti-cancer activity. Cells are grown in 96 well plates and exposed to the test compound for 48 hours. Compounds are tested at a single concentration, which is 10^-5 M for most compounds. The reported endpoint is percent growth (GI% or GIPRCNT), where numbers from 0 - 100% represent growth inhibition, and numbers from -100% - 0 represent cell death. For example, a value of 40 represents 60% growth inhibition. […]
Compounds without any hit were thinned out: in the full panel of roughly 83,000, 20% have a hit. The source made the active and inactive calls. How the source made its calls: active means growth percent below 10; inactive means the rest.
Here the recorded growth is given for each entry.

{"columns": ["Compound", "growth"],
 "data": [
  ["CCN1C(=O)N(CC)C2C1NN=c1s/c(=C\\c3ccc(OC)cc3)c(=O)n12 (centres undefined)", "10.5% (inactive)"],
  ["CC(C)n1c2ccc(Br)cc2c2c3c(c4c5ccccc5ccc4c21)C(=O)NC3=O", "52.7% (inactive)"],
  ["N#Cc1ccc(/C=C/c2cn(-c3ccccc3)nc2-c2cccc([N+](=O)[O-])c2)cc1", "65.7% (inactive)"],
  ["N#Cc1c(-c2cccc(Cl)c2)cc(-c2cccnc2)[nH]c1=O", "65.6% (inactive)"],
  ["C=C[C@@]1(C)CC(=O)[C@@H](C(C)(C)c2cn(C)c3ccc(Br)cc23)C[C@@H]1O[Si](C)(C)C(C)(C)C", "100% (inactive)"]
]}

Form: Entry = O=c1cc(CNc2cc(F)cc(F)c2)c2ccc(I)cc2[nH]1 | System = KM12 colon | growth = ____
24.1% (inactive)

# value lookup — system KM12 colon, readout growth, item O=[N+]([O-])c1c(O)c(Cl)cc(Cl)c1Cl
112% (inactive)

Provide the documented growth with KM12 colon as the system for C=C1C(=O)O[C@H]2[C@H]1CC/C(CNC(=O)Cc1c[nH]c3ccccc13)=C\CC[C@@]1(C)O[C@@H]21
47.5% (inactive)

Item CCCCCCCCn1ccc2cc(NC(=O)CN3CCN(c4cc(C)nc(Cl)n4)CC3)ccc21 with KM12 colon - growth?
91.9% (inactive)

----------
System: MDA-MB-435 melanoma
Assay: NCI-60 one-dose screen, 48 h (100 = growth as untreated, 0 = no growth, -100 = all killed)
Details: 10 µM unless noted
About 83,000 compounds went through this panel and 20% of them were active in at least one assay; those are over-represented in the sample as a whole.
Value Kind: growth (%)
# value in %; strip the unit string

{"columns": ["Molecule", "Result"],
 "data": [
  ["COc1ccc(C2[C@@H](Cl)C(=O)N2c2cc(OC)c(OC)c(OC)c2)cc1Cl (some centres undefined)", -20.7]
]}

Fill in the recorded growth for this molecule, with MDA-MB-435 melanoma as test system: Cc1nc(N/N=C/c2cn(-c3ccccc3)nc2-c2cc3ccccc3oc2=O)sc1N=Nc1ccccc1
3.67

GET /values?readout=growth&system=MDA-MB-435 melanoma&item= C/C(Cc1ccc(Cl)cc1)=C(\c1ccc(OCCN2CCCCCC2)cc1)c1ccc(OC(=O)c2ccccc2)cc1
47.6

----------
Tested on: HCT-116 colon
Test: NCI-60 one-dose screen, 48 h (100 = growth as untreated, 0 = no growth, -100 = all killed)
Details: 10 µM unless noted
Compounds without any hit were thinned out: in the full panel of roughly 83,000, 20% have a hit.
Value Kind: growth (%)
Reply with just the number (in %).

Use these answered entries as a reference point.
{"columns": ["Molecule", "growth / %"],
 "data": [
  ["Cc1oc(-c2ccc(Cl)cc2)nc1C1=NN(C(=O)c2ccncc2)C(c2ccccc2)C1 (stereo not given)", 93.8],
  ["O=c1ccc2ccc(OCCN3CCCCC3)cc2o1", 89],
  ["COc1ccc(/C=C(\\C(=O)NCc2cccnc2)S(=O)(=O)c2ccccc2)cc1OC", 15],
  ["Cc1[nH]c(C(=O)Nc2ccccc2OC2CCN(CCN3CCOCC3)CC2)c(Cl)c1Cl", 77.1]
]}

// below: growth requested for another molecule
I am curious: what growth value has been reported for N#Cc1c(-c2ccc(Cl)cc2)nc(NN=Cc2ccc[nH]2)nc1N1CCOCC1 ?
90.1

----------
Test system: SW-620 colon
Test: NCI-60 one-dose screen, 48 h
Conditions: 10 µM unless noted
Compounds without any hit were thinned out: in the full panel of roughly 83,000, 20% have a hit. Calls of active or inactive are those of the source. Rule for the calls: active = growth percent below 10; inactive = the rest.
// one of active, inactive, no free text

{"columns": ["Compound", "Discrete Label"],
 "data": [
  ["COC(=O)c1c2c(c[n+]([O-])c1C)C(=O)C=C(NCc1ccccc1)C2=O", "active"],
  ["O=C(NCCCCO)c1cncnc1Nc1ccc2c(ccn2Cc2cccc(F)c2)c1", "inactive"],
  ["COC(=O)c1ccc2cc(OC)c(OC)cc2c1", "inactive"],
  ["COc1ccc2c(c1)CC[C@@H]1[C@@H]2CC[C@]2(C)c3c(cc(C#N)c4c3sc3ccccc34)C[C@@H]12", "inactive"],
  ["COc1ccc(Nc2ncc(C#N)c(NCCCNC(=O)C3CCC3)n2)cc1", "inactive"],
  ["CC(C)c1ccc2c(c1)CC[C@H]1[C@](C)(C(=O)OCC#CCN3CCCC3)CCC[C@]21C", "inactive"],
  ["Cc1cccc(NC(=O)N/C(N)=N/c2nc3ccccc3s2)c1", "inactive"],
  ["Clc1ccc(-c2nc(C(Cl)Cl)nc3cc(-c4ccccc4)nn23)cc1", "active"],
  ["Cc1ccc2nc(-c3ccc(C(=O)N/N=C/c4ccc([N+](=O)[O-])cc4)cc3)[nH]c2c1", "inactive"],
  ["O=C(/C=C/C12c3ccccc3C(c3ccccc31)C1C(=O)NC(=O)C12)c1ccc(Cl)cc1Cl (stereo unspecified)", "active"]
]}

Could you check what this test reported for COc1ccc(/C=C2\CN(C(=O)C(Cl)Cl)C/C(=C\c3ccc(OC)c(OC)c3)C2=O)cc1OC ?
active

GET /call?item= CN1C(=O)/C(=C/c2ccc(C(=O)Nc3ncc(Cc4cccc(C(F)(F)F)c4)s3)cc2)SC1=S returns the recorded outcome of this test.
inactive

----------
Tested on: SR leukemia
Test: NCI-60 one-dose screen, 48 h
Conditions: 10 µM unless noted
This is part of a sample that, as a whole, favours compounds with a hit. Of some 83,000 tested, about 20% had one in any assay. The source made the active and inactive calls. Rule for the calls: active = growth percent below 10; inactive = the rest.
Reply using exactly one outcome from active, inactive

Examples from the recorded data:
{"columns": ["Compound", "Assayed Target", "Discrete Label"],
 "data": [
  ["C=CCN=c1sc(-c2ccc3ccccc3c2)cn1NC(=O)c1cc2ccc1CCc1ccc(cc1)CC2", "SR leukemia", "inactive"],
  ["C#Cc1cccc(NC(=O)C2CCCCN2C(=O)CCl)c1 (stereo not given)", "SR leukemia", "active"],
  ["C[C@H](c1nc2ccc(C#N)cc2[nH]1)[C@H]1CC[C@H]2[C@@H]3CCC4=CC(=O)CC[C@]4(C)[C@H]3CC[C@]12C", "SR leukemia", "inactive"],
  ["CS(=O)(=O)Nc1cc(-c2ccc3ncnc(Nc4ccc(F)c(Cl)c4)c3c2)ccc1Cl", "SR leukemia", "inactive"]
]}

Lab log entry: COc1ccc(-c2cc(-c3cccnc3)nc3sc4c(N)c(C(C)=O)c(-c5ccccc5)nc4c23)cc1OC — outcome as called in the assay?
inactive

Field: outcome | Entry: CNCCCNc1nc2ccccc2c2c(=O)c3cc(Cl)ccc3sc12
active

Record lookup: outcome of this test for O=C(c1ccc(Br)cc1)C(Br)C(c1ccc(Cl)cc1)C(c1ccccc1)[N+](=O)[O-] (stereo not given) ?
inactive

Please state the recorded outcome for this compound: CN(C)CCC(CCN(C)C)(C(=O)O)c1ccccc1
inactive

----------
System: SK-MEL-28 melanoma
Experiment: NCI-60 one-dose screen, 48 h
Conditions: 10 µM unless noted
The panel holds about 83,000 compounds, 20% with a hit somewhere; the sample as a whole holds those more often. Calls of active or inactive are those of the source. The calls were made as follows: active = growth percent below 10; inactive = the rest.
Would you mind answering with one of these outcomes? active, inactive

Solved cases below.
{"columns": ["Compound", "Assayed Target", "Discrete Label"],
 "data": [
  ["CN1CC(c2ccc(Br)cc2)C(C(=O)c2ccc(Br)cc2)C12C(=O)Nc1ccccc12 (stereo not drawn)", "SK-MEL-28 melanoma", "inactive"],
  ["COC(=O)/C=C1/SC(=NCc2ccccc2)N(CCc2c[nH]c3ccccc23)C1=O", "SK-MEL-28 melanoma", "inactive"],
  ["c1cc(OCCN2CCCCC2)ccc1CNc1ccc2nc(CCC3CCCCC3)[nH]c2c1", "SK-MEL-28 melanoma", "active"],
  ["CSc1ccc(N2C(=N)C(=S)N(c3ccc(C)cc3)C2=O)cc1", "SK-MEL-28 melanoma", "inactive"],
  ["Cc1cc(=O)n(C(=S)Nc2ccc(Cl)cc2)c2cc(O)ccc12", "SK-MEL-28 melanoma", "inactive"]
]}

Call for entry CCCCCc1ccc(S(=O)(=O)Nc2ccc3nc(N)oc3c2)cc1 :
inactive

Per the records of this test, what outcome belongs to COc1ccc(C(=O)Nc2ncc(Cc3ccc(Cl)cc3)s2)cc1 ?
inactive

Please share the test call associated with CCOC(=O)NC(=S)n1oc(=O)c2ccccc21 .
inactive

Status in this test for CC(=O)c1sc(-c2ccc(F)cc2)cc1O ?
inactive

Please share the test call associated with CC(C)(C)c1ccc(C(=O)N/N=C/c2ccc(O)cc2O)cc1 .
inactive

GET /call?item= c1ccc(-c2ccc3c(c2)C2(CCNCC2)CN3)cc1 returns the recorded outcome of this test.
inactive

Please let me know the test result on file for CC(C)Cc1nc(Nc2ccccc2)[nH]c(=O)c1C#N .
inactive

Record request — test call for O=c1oc2c(cc1-c1ccccc1)c(=O)[nH]c1ccccc12
inactive

What did this assay record as the result for CCOC(=O)C(CCN(C)C)c1ccccc1 (stereo not drawn) ?
inactive

Test call for this compound, please: O=C(Cn1nc(-c2cccc3ccccc23)ccc1=O)NCc1cccc(Cl)c1
inactive

Recorded call for O=C(NCCN1CCOCC1)OCc1ccc2c(Cl)cc(Cl)c(O)c2n1 ?
inactive
